Data provenance: patent US10336768B2

assay: Mouse pharmacokinetics, brain tissue levels (LC-MS/MS); assay type: in vivo; settings: mouse, brain, mouse brain tissue, 1.00 h; read-out: Mean Group Concentration, Tissue
quantity: concentration at 1 h (ng/g)
Output spec: scalar in ng/g, unitless text.

Give its concentration at 1 h value. Item: Nc1nc(-c2c(Cl)cc(Cl)c3c2CCO3)c2[nH]ccc2n1
7280
